The following compounds are listed with their measured chromatographic logP values.
# EXPERIMENTAL_PROTOCOL: log P (HPLC-MS)
# Assay type: physicochemical
Structures can show the parent of a compound that is named as a salt.

>  <COMPOUND>
CC(F)(CNC(=O)c1ccccc1C(F)(F)F)c1ccc(Cl)cc1Cl (centres unmarked)

>  <chromatographic logP>
3.7

$$$$
>  <COMPOUND>
CC(F)(CN)c1ccc(Cl)cc1Cl (centres unmarked) [hydrochloride]

>  <chromatographic logP>
0.89

$$$$
